- subject_of_test: PCAF719-832 bromodomain (Homo sapiens (Human))
- assay_comment: PCAF AlphaLisa binding assay
- condition_info: PCAF bromodomain 225 nM, biotinylated small molecule ligand 6 nM
pIC50: −log10 of the molar value.
measurement_label: pIC50

Worked cases, pIC50 given:
{"compound": "CN(C)[C@@H]1CCCC[C@@H]1Nc1nn(C)c(=O)c2cccnc12 (single isomer, unassigned) [Example 15B]", "pIC50": 5.82}
{"compound": "CN(C)CCNc1nn(C)c(=O)c2c(F)cccc12", "pIC50": 7.06}
{"compound": "Cn1nc(NC2CNC2)c2ncccc2c1=O", "pIC50": 5.47}
{"compound": "CN1CCC(Nc2nn(C)c(=O)c3ccccc23)C1 (racemic)", "pIC50": 6.59}
{"compound": "CN(C)C(CNc1nn(C)c(=O)c2[nH]ccc12)c1ccccc1 (racemic)", "pIC50": 6.62}

A = CN(C)C(CNc1nn(C)c(=O)c2ccccc12)c1ccccc1F (racemic)
B = CC[C@H](Nc1nn(C)c(=O)c2cccnc12)[C@H](c1ccccc1)N(C)C (single isomer, unassigned)
Could you point out whether the larger pIC50 belongs to A or to B ? Answer with the label corresponding to your selection.
B

I = C[C@H](Nc1nn(C)c(=O)c2cccnc12)[C@H](c1ccc(C(=O)N2CCOCC2)cc1)N(C)C
II = CC(CN(C)C)Nc1nn(C)c(=O)c2ccncc12 (racemic)
Please let me know which one, I or II , has a lower measured pIC50 value. Answer with the label corresponding to your selection.
II
(II: 6.66, I: 7.23)

a = CN(C)C(CNc1nn(C)c(=O)c2c1CCCC2)c1ccccc1 (racemic)
b = COc1ccc([C@@H]([C@H](C)Nc2nn(C)c(=O)c3ccccc23)N(C)C)cn1 (single isomer, unassigned)
c = CN(C)CCNc1nn(C)c(=O)c2cccnc12
Ascending by pIC50, please. Please respond with the labels ordered as the question requires.
a, c, b

I = C[C@H](Nc1nn(C)c(=O)c2ccccc12)[C@H](c1ccc(S(=O)(=O)c2ccccc2)cc1)N(C)C
II = CC[C@@H](CNc1nn(C)c(=O)c2ccccc12)N(C)C (single isomer, unassigned) [Example 39A]
Could you point out whether the larger pIC50 belongs to I or to II ? Answer with the label corresponding to your selection.
I
(I: 7.21, II: 6.26)

---

- subject_of_test: PCAF719-832 bromodomain (Homo sapiens (Human), UniProt Q92831)
- Sequence (Q92831 719-832): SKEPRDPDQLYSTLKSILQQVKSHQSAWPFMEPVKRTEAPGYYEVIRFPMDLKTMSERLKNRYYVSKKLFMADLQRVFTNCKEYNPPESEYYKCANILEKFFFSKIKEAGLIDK
- assay_comment: PCAF AlphaLisa binding assay
- condition_info: PCAF bromodomain 225 nM, biotinylated small molecule ligand 6 nM
measurement_label: IC50 (nM)

{"molecule": "CC(Nc1nn(C)c(=O)c2cccnc12)C(c1ccc(S(=O)(=O)c2ccccc2)cc1)N(C)C (single isomer, unassigned)", "unit_text": "nM", "IC50": 40}
{"molecule": "C[C@@H](CNc1nn(C)c(=O)c2cccnc12)N(C)C (single isomer, unassigned)", "unit_text": "nM", "IC50": 860}
{"molecule": "C[C@H](Nc1nn(C)c(=O)c2cccnc12)[C@H](c1ccc(C(=O)O)cc1)N(C)C", "unit_text": "nM", "IC50": 98}

1 = C[C@@H](Nc1nn(C)c(=O)c2ccccc12)[C@@H](c1ccccc1)N(C)C (single isomer, unassigned) [Example 73B]
2 = C[C@H](CNc1nn(C)c(=O)c2cccnc12)N(C)C (single isomer, unassigned)
3 = CC(Nc1nn(C)c(=O)c2cccnc12)C(c1cn(C)nn1)N(C)C (single isomer, unassigned)
Order the records so the highest IC50 appears first and the lowest last. Please respond with the labels ordered as the question requires.
1, 3, 2
(1: 680 nM, 3: 130 nM, 2: 72 nM)
